Provenance of the data: PubChem BioAssay (NCI)

- testDetails: NCI Yeast Anticancer Drug Screen. Data for the sgs1 mgt1 strain (AID 161);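 note: 0% = growth of cultures given vehicle only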
- experimentalContext: S. cerevisiae sgs1 mgt1 strain, at 50.0 µM, active compounds read high
- Description: Growth inhibition of yeast strains with defined genetic alterations is measured as a screen for potential anti-cancer activity. Selected strains with alterations in DNA damage repair or cell cycle control were exposed to compounds and growth inhibition was measured relative to vehicle treated controls. The strain used in this assay is sgs1 mgt1
This is part of a sample that, as a whole, favours compounds with a hit. Of some 79,000 tested, about 15% had one in any assay.
Consider the following compounds; for each one, report its growth inhibition.
One number for each entry, in %.

CC(=O)Nc1ccccc1C=O :: 3.75
CC1CC(C)(C)OC(C2CC=CCC2)O1 (stereo unspecified) :: -13.8
CN(C)CC(O)CNC(=O)Nc1ccccc1 (stereo unspecified) :: 12.7
CCNC1(C(=O)O)CCCCC1 :: -1.5

Dear reader, for each entry below, please note its growth inhibition.
1. CCOC(=O)CN1CN(CCc2ccccc2)CC(C)(C)C1OCC (stereo unspecified)
2. CSCCC(NC(C)=O)C(C)=O (stereo unspecified)

Given back:
[43.4, -3.55]
